# pKd per record follows
- test-system: T1, Rb^P E554K (human, UniProt P06400 380-788, E554K)
- T1 construct: also called variant 28
- T1 sequence (looked up): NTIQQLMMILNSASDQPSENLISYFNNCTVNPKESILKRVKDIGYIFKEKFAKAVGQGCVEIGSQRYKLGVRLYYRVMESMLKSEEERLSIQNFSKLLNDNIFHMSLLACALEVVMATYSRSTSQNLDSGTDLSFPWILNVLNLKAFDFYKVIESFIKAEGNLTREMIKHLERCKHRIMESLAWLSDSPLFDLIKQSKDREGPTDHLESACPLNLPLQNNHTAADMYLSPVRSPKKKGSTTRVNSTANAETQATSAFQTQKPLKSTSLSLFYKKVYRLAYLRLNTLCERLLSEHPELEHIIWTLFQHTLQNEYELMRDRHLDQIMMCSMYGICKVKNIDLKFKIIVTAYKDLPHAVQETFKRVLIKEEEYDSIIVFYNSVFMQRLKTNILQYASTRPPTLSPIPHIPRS
- protocol: fluorescence polarisation; 25 °C; unlabeled Rb^P titrated against 1.5 nM TMR-E2F1^TD or 7.5 nM TMR-E7^LxCxE; 25 mM Tris pH 8.0, 200 mM NaCl, 1 mM DTT, 0.1% Tween-20; 2 min incubation; quadratic fit; apparent Kd for the variants, Kd for WT
- particulars: both partners purified
No end group written: not given here. TMR = tetramethyl rhodamine dye
The meaning of pKd here: minus log10 of the concentration in molar units.

>  <binder>
{TMR}-GEGIRDLFDCDFGDLTPLD (also called E2F^TD; source: synthetic peptide, bought: GenScript) [TMR-E2F1^TD, peptide of the E2F1 transactivation domain]

>  <pKd>
5.93

$$$$

Kindly review the next binder as well.
Request: Can you look up the measured pKd of DLYCYEQLN (also: TMR label, position not given here, source: synthetic peptide, bought: GenScript) [TMR-E7^LxCxE, LxCxE peptide of the E7 oncoprotein from HPV] for me?
Result: 7.92

The origin of these recorded values is paper PMC11931385.
